Parameter: EC50. Scope: all listed entries.
SYSTEM_TESTED: RORα LBD (Homo sapiens, UniProt P35398)
Construct: purified GST-tagged (i) RORγ LBD or (ii) RORα LBD; purchased Life Technologies
Sequence (P35398 272-510 limits assumed): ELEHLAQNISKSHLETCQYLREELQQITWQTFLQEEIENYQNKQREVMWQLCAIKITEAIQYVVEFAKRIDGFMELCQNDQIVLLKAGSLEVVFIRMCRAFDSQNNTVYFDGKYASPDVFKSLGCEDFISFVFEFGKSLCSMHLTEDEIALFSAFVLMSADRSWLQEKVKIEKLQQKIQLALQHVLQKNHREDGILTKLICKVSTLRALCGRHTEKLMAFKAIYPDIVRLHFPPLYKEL
METHOD_SUMMARY: TR-FRET NCoR1-D2 co-repressor recruitment to RORα LBD
Format: biochemical
CONDITION_SET: TR-FRET assessed 20 hr post-assay initiation; read-out: RORα EC50 NCoR1-D2 co-repressor recruitment, 20 hr

Solved entries (count: 8):
Query: What value of EC50 has been recorded for this entry: OC(c1ccc(CN2CCCc3cc(-c4cn[nH]c4)ccc32)cc1)(C(F)(F)F)C(F)(F)F
Reply: < 30 µM

Query: Item: Cc1n[nH]c(-c2ccc3c(c2)CCC(=O)N3Cc2ccc(C(O)(C(F)(F)F)C(F)(F)F)cc2)n1
Reply: > 30 µM

Query: What about Cc1cc(-c2ccc3c(c2)CCCN3Cc2ccc(C(O)(C(F)(F)F)C(F)(F)F)cc2)[nH]n1 ?
Reply: < 30 µM

Query: Let us now turn to OC(c1ccc(CN2CCc3cc(-c4cn[nH]c4)ccc32)cc1)(C(F)(F)F)C(F)(F)F
Reply: > 30 µM

Query: // same read-out, input: Cc1nnc(-c2ccc3c(c2)CCN3Cc2ccc(C(O)(C(F)(F)F)C(F)(F)F)cc2)o1
Reply: < 30 µM

Query: Try this compound too: O=C1CCc2cc(-c3cn[nH]c3)ccc2N1Cc1ccc(C(O)(C(F)(F)F)C(F)(F)F)cc1
Reply: > 30 µM

Query: Input Cc1n[nH]c(-c2ccc3c(c2)CCCN3Cc2ccc(C(O)(C(F)(F)F)C(F)(F)F)cc2)n1
Reply: < 30 µM

Query: Now this one: Cc1cc(-c2ccc3c(c2)CCN3Cc2ccc(C(O)(C(F)(F)F)C(F)(F)F)cc2)[nH]n1
Reply: < 30 µM

Please examine the following record next.
Query: What does the data say about its EC50? Entry: Cc1cc(-c2ccc3c(c2)CCC(=O)N3Cc2ccc(C(O)(C(F)(F)F)C(F)(F)F)cc2)[nH]n1
Reply: < 30 µM

====

SYSTEM_TESTED: RORγ LBD (Homo sapiens)
Sequence (P51449 269-508 limits assumed): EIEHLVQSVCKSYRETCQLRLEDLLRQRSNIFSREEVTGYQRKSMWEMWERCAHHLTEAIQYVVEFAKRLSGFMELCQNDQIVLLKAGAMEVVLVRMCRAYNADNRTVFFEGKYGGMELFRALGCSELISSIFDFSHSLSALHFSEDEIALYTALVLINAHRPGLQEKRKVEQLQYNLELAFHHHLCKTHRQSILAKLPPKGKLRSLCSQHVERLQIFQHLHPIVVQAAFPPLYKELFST
METHOD_SUMMARY: TR-FRET D22 co-activator displacement from RORγ LBD
Assay type: biochemical
Parameters: purified GST-tagged (i) RORγ LBD or (ii) RORα LBD; purchased Life Technologies
CONDITION_SET: TR-FRET assessed 2 hr post-assay initiation; read-out: RORγ EC50 D22 co-activator displacement, 2 hr
Experimental: The Time-Resolved Fluorescence Resonance Energy Transfer (TR-FRET) assay kit (Life Technologies) was used to measure compound efficacy to disrupt or enhance ligand-mediated interaction of the co-activator and co-repressor peptides with the purified GST-tagged (i) RORγ LBD or (ii) RORα LBD. […] The assay was performed as per manufacturer's instructions and TR-FRET was assessed 2 and 20 hours post-assay initiation. […]
EXPERIMENTAL_ENDPOINT: EC50

Query: RORγ LBD (Homo sapiens) / EC50 / Cc1cc(-c2ccc3c(c2)CCN3Cc2ccc(C(O)(C(F)(F)F)C(F)(F)F)cc2)[nH]n1 [Example 7] : value?
Reply: < 30 µM

Query: Subsequent entry: Cc1cc(-c2ccc3c(c2)CCC(=O)N3Cc2ccc(C(O)(C(F)(F)F)C(F)(F)F)cc2)[nH]n1 [Example 4]
Reply: > 30 µM

Query: Please answer likewise for Cc1nnc(-c2ccc3c(c2)CCN3Cc2ccc(C(O)(C(F)(F)F)C(F)(F)F)cc2)o1 [Example 9]
Reply: > 30 µM

Query: Cool, now Cc1cc(-c2ccc3c(c2)CCCN3Cc2ccc(C(O)(C(F)(F)F)C(F)(F)F)cc2)[nH]n1 [Example 1]
Reply: < 30 µM

Query: // next record OC(c1ccc(CN2CCCc3cc(-c4cn[nH]c4)ccc32)cc1)(C(F)(F)F)C(F)(F)F [Example 2]
Reply: < 30 µM

Query: # repeat for OC(c1ccc(CN2CCc3cc(-c4cn[nH]c4)ccc32)cc1)(C(F)(F)F)C(F)(F)F [Example 8]
Reply: < 30 µM

Query: Lookup O=C1CCc2cc(-c3cn[nH]c3)ccc2N1Cc1ccc(C(O)(C(F)(F)F)C(F)(F)F)cc1 [Example 5]
Reply: > 30 µM

Query: What do we get for Cc1n[nH]c(-c2ccc3c(c2)CCCN3Cc2ccc(C(O)(C(F)(F)F)C(F)(F)F)cc2)n1 [Example 3] ?
Reply: < 30 µM

Pending compound:
Query: What reported EC50 corresponds to Cc1n[nH]c(-c2ccc3c(c2)CCC(=O)N3Cc2ccc(C(O)(C(F)(F)F)C(F)(F)F)cc2)n1 [Example 6] on RORγ LBD (Homo sapiens)?
Reply: < 30 µM
